System: WNV
Assay comment: microbe, parasite or virus in culture
Assay type: cell-based
Conditions used: West Nile virus, Vero 76, Vero76 cells
pEC50: −log10 of the molar value.
Reported metric: pEC50

Record smiles	Result value
Cc1nc(N)c2c(C(N)=O)cn([C@@H]3O[C@H](CO)[C@@H](O)[C@H]3O)c2n1	< 4.00

###

Assay comment: Cytotoxicity in lymphocyte assays, MOLT-3 cells
Assay type: cell-based
Conditions used: human, parallel to HHV-6B assay

Record smiles	Value units	CC50
Cc1nc(N)c2c(C(N)=O)cn([C@@H]3O[C@H](CO)[C@@H](O)[C@H]3O)c2n1	µM	44.7

###

Test system: Vero76
Conditions used: Vero76 cells, parallel to ENTV-71 assay
Reported metric: CC50

Compound	Result value
Cc1nc(N)c2c(C(N)=O)cn([C@@H]3O[C@H](CO)[C@@H](O)[C@H]3O)c2n1 [Compound 1]	> 100 µM
